# inhibition per record follows
measured-target: MAP kinase-activated protein kinase 3 (Homo sapiens)
assay-context: at 0.1 µM
Description: GSK_PKIS: MAPKAPK3 mean inhibition at 0.1 uM [Nanosyn]
Kindly provide the numeric value in % only, without the unit symbol.

Ask: Specify inhibition for NC(=O)c1sc(-n2cnc3cc(C(F)(F)F)ccc32)cc1OCc1ccccc1Br and stop.
Result: 1.71

----------
measured-target: Inhibitor of nuclear factor kappa-B kinase subunit alpha (Homo sapiens);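 note: mean inhibition of IKKA, from the GSK PKIS data set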
assay-context: at 1 µM
property-label: inhibition (%)
Numbers only; they are read as %.

// worked examples, inhibition included
smi | inhibition (%)
COc1cc2c(cc1Nc1nc(Nc3ccsc3C(N)=O)c3cc[nH]c3n1)N(C(=O)CN(C)C)CCC2 | -1.3
CCn1c(-c2nonc2N)nc2c(C#CC(C)(C)O)ncc(OC[C@@H]3CCCN3)c21 | -0.05
NS(=O)(=O)c1ccc(-c2ccc3c(NC(=O)C4CC4)n[nH]c3c2)cc1 | 3
Nc1nonc1-c1nc2cnccc2n1C1CCCCC1 | -2.66

Ask: Provide inhibition value for the following compound: NC(=O)c1sc(-n2cnc3cc(C(F)(F)F)ccc32)cc1OCc1ccccc1Br
Result: 2.85

----------
# maps each entry to its inhibition
measured-target: Phosphatidylinositol 4-kinase beta (Homo sapiens) (UniProt Q9UBF8);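 note: values given are mean percent inhibition of PI4K-beta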
Sequence (Q9UBF8 2-816 limits assumed): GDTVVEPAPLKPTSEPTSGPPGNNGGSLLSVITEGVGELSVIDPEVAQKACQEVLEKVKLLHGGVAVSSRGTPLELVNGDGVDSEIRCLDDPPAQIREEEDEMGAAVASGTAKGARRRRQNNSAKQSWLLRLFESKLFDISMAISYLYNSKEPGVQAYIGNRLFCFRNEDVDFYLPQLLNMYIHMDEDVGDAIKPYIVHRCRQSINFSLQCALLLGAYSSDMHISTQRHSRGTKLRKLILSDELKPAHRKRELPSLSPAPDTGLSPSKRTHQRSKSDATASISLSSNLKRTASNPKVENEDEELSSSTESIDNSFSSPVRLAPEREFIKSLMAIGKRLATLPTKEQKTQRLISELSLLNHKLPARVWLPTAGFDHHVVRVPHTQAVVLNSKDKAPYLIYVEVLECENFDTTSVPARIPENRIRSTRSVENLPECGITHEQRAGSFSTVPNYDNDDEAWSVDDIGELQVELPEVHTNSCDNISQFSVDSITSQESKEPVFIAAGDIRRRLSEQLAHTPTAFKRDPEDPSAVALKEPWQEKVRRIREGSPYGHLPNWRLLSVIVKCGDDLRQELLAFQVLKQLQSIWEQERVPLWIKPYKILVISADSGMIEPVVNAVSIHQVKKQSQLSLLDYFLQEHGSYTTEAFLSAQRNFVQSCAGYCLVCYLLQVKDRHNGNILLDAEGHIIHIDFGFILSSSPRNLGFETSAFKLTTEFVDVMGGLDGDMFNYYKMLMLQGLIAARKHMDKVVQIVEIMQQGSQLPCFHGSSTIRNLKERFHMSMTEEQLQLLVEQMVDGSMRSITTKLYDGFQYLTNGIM
assay-context: at 0.1 µM
The response must be a number in % with no trailing unit.

// known answers, use as guide
smi | assay-result
COc1cc(C=NNc2ncnc3c2cnn3Cc2ccccc2)ccc1O | -1.09
CCn1c(-c2nonc2N)nc2c(C#CC(C)(C)O)ncc(OCC3CCNCC3)c21 | 4.18
NS(=O)(=O)c1ccc(-c2ccc3c(NC(=O)C4CC4)n[nH]c3c2)cc1 | -0.87

Below: the item to evaluate.
Ask: Item NC(=O)c1sc(-n2cnc3cc(C(F)(F)F)ccc32)cc1OCc1ccccc1Br : provide inhibition
Result: 0.77

----------
measured-target: Protein kinase C iota type (Homo sapiens) (UniProt P41743);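 note: reported figures are mean inhibition values from the GSK PKIS screen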
Sequence (P41743 whole entry): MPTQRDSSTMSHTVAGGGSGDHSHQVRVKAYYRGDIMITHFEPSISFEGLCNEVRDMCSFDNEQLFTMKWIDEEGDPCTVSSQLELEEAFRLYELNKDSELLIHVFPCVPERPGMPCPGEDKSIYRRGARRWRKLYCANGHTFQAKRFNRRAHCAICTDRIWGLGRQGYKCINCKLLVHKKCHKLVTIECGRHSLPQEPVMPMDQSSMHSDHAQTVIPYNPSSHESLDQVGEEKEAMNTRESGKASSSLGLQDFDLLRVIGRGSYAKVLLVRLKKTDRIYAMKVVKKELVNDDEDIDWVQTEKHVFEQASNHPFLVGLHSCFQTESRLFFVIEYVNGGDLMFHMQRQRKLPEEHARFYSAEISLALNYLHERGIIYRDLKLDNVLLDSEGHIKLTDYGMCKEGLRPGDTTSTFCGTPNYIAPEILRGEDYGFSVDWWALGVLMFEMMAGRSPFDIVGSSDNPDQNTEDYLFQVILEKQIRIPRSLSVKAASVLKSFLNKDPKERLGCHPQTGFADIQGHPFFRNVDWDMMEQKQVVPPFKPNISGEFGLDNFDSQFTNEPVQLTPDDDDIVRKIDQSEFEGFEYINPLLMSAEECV
assay-context: at 1 µM
The reader will find reported inhibition values listed item by item below.
Field: numeric (%). Do not append units.

Please review the entries below; each comes with its answer.
smi | measured-target | unit-abbreviation | inhibition
COc1cccc(-n2ncc3c(N/N=C/c4ccncc4)ncnc32)c1 | Protein kinase C iota type (Homo sapiens) (UniProt P41743) | % | 13.1
NS(=O)(=O)c1ccc(-c2ccc3c(NC(=O)C4CC4)n[nH]c3c2)cc1 | Protein kinase C iota type (Homo sapiens) (UniProt P41743) | % | 3.22
CCn1c(-c2nonc2N)nc2c(C#CC(C)(C)O)nc(O[C@@H](CN)c3ccccc3)cc21 | Protein kinase C iota type (Homo sapiens) (UniProt P41743) | % | 26.4

Ask: Answer with the recorded inhibition for the compound listed here: NC(=O)c1sc(-n2cnc3cc(C(F)(F)F)ccc32)cc1OCc1ccccc1Br
Result: 0.63

Ask: Tell me measured inhibition for Cc1cc(-c2ccco2)cc(C)c1/C=C/c1cncc(-c2nn[nH]n2)c1 please.
Result: -0.83

----------
measured-target: Testis-specific serine/threonine-protein kinase 1 (Homo sapiens) (UniProt Q9BXA7);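 note: mean percent inhibition of TSSK1, from the GSK PKIS screening dataset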
Sequence (whole entry): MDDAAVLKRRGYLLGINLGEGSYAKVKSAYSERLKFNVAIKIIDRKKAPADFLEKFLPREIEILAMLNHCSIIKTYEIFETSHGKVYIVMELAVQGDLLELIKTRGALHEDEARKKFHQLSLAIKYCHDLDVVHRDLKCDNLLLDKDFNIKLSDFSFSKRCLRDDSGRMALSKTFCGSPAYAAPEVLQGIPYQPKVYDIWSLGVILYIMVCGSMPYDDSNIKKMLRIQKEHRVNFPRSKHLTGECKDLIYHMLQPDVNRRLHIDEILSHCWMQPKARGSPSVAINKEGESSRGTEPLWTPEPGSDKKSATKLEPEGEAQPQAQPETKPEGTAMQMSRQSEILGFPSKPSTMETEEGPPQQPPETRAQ
assay-context: at 0.1 µM
The compounds listed here are annotated with their inhibition.
Dear colleague, please return just the value in %, with no unit written.

Examples with answers:
smi | measured-target | property-label | assay-result
Fc1ccc(-c2ncn(C3CCNCC3)c2-c2ccnc(Oc3ccccc3)n2)cc1 | Testis-specific serine/threonine-protein kinase 1 (Homo sapiens) (UniProt Q9BXA7) | inhibition | 2.36
Cc1cc(-c2ccco2)cc(C)c1/C=C/c1cncc(-c2nn[nH]n2)c1 | Testis-specific serine/threonine-protein kinase 1 (Homo sapiens) (UniProt Q9BXA7) | inhibition | 1.7
COc1cccc(COc2cc(-n3cnc4ccccc43)sc2C(N)=O)c1 | Testis-specific serine/threonine-protein kinase 1 (Homo sapiens) (UniProt Q9BXA7) | inhibition | -0.31
CCn1c(-c2nonc2N)nc2c(C#CC(C)(C)O)nc(O[C@@H](CN)c3ccccc3)cc21 | Testis-specific serine/threonine-protein kinase 1 (Homo sapiens) (UniProt Q9BXA7) | inhibition | 85.5
NC(=O)c1sc(-n2cnc3cc(C(F)(F)F)ccc32)cc1OCc1ccccc1Br | Testis-specific serine/threonine-protein kinase 1 (Homo sapiens) (UniProt Q9BXA7) | inhibition | 2.93
COc1cc(C=NNc2ncnc3c2cnn3Cc2ccccc2)ccc1O | Testis-specific serine/threonine-protein kinase 1 (Homo sapiens) (UniProt Q9BXA7) | inhibition | -3.19

Ask: For the compound NS(=O)(=O)c1ccc(-c2ccc3c(NC(=O)C4CC4)n[nH]c3c2)cc1 , give its reported inhibition.
Result: 0.11

Ask: // fetch inhibition given entry COc1cc2c(cc1Nc1nc(Nc3ccsc3C(N)=O)c3cc[nH]c3n1)N(C(=O)CN(C)C)CCC2
Result: 92.3

Ask: Given the compound Nc1nonc1-c1nc2cnccc2n1C1CCCCC1 , write its reported inhibition.
Result: 0.17

----------
Reported inhibition values are given for each entry in this list.
measured-target: Dual specificity tyrosine-phosphorylation-regulated kinase 1B (Homo sapiens);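 note: values are mean percent inhibition of DYRK1B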
assay-context: at 0.1 µM
Answer with a number only, understood to be in %.

Example results:
smi | property-label | assay-result
COc1cc2c(cc1Nc1nc(Nc3ccsc3C(N)=O)c3cc[nH]c3n1)N(C(=O)CN(C)C)CCC2 | inhibition | -0.31
CCn1c(-c2nonc2N)nc2c(C#CCN)ncc(OCCCN)c21 | inhibition | 5.17
Nc1nonc1-c1nc2cnccc2n1C1CCCCC1 | inhibition | 23.4

Note: attention shifts to another entry.
Ask: Read off the recorded inhibition for NC(=O)c1sc(-n2cnc3cc(C(F)(F)F)ccc32)cc1OCc1ccccc1Br
Result: -0.04

----------
Quick reference: inhibition of the listed items.
measured-target: Mitogen-activated protein kinase 9 (Homo sapiens);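 note: values are mean inhibition of JNK2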
assay-context: at 0.1 µM
// return numeric value only (unit: %, not printed)

Examples from the recorded data:
smi | assay-result
NS(=O)(=O)c1ccc(-c2ccc3c(NC(=O)C4CC4)n[nH]c3c2)cc1 | 3.73
CCn1c(-c2nonc2N)nc2c(C#CCN)ncc(OCCCN)c21 | -2.82
NC(=O)c1sc(-n2cnc3cc(C(F)(F)F)ccc32)cc1OCc1ccccc1Br | 0.9
CCn1c(-c2nonc2N)nc2c(C#CC(C)(C)O)ncc(OCC3CCNCC3)c21 | 2.04
Cc1cc(-c2ccco2)cc(C)c1/C=C/c1cncc(-c2nn[nH]n2)c1 | 1.02
NS(=O)(=O)c1ccc(N/C=C2\C(=O)Nc3ccc4ncsc4c32)cc1 | 5.59

--- query ---
Ask: Fill in inhibition for record CCn1c(-c2nonc2N)nc2c(C#CC(C)(C)O)nc(O[C@@H](CN)c3ccccc3)cc21
Result: 2.01

----------
Quick reference for inhibition among some compounds
measured-target: cAMP-dependent protein kinase catalytic subunit PRKX (Homo sapiens);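 note: each value is the mean percent inhibition of the kinase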
assay-context: at 1 µM
Write the numeric value and follow it with the unit.

Worked cases, inhibition given:
smi | measured-target | property-label | assay-result
NS(=O)(=O)c1ccc(-c2ccc3c(NC(=O)C4CC4)n[nH]c3c2)cc1 | cAMP-dependent protein kinase catalytic subunit PRKX (Homo sapiens) | inhibition | -1.16%
COc1cc2c(cc1Nc1nc(Nc3ccsc3C(N)=O)c3cc[nH]c3n1)N(C(=O)CN(C)C)CCC2 | cAMP-dependent protein kinase catalytic subunit PRKX (Homo sapiens) | inhibition | 1.29%

Ask: Identify measured inhibition corresponding to NS(=O)(=O)c1ccc(N/C=C2\C(=O)Nc3ccc4ncsc4c32)cc1
Result: 6.55%

----------
measured-target: CDK3/Cyclin E (Homo sapiens) (UniProt P24864+Q00526);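 note: reported percentages are mean inhibition values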
Sequence (P24864 whole entry, looked up): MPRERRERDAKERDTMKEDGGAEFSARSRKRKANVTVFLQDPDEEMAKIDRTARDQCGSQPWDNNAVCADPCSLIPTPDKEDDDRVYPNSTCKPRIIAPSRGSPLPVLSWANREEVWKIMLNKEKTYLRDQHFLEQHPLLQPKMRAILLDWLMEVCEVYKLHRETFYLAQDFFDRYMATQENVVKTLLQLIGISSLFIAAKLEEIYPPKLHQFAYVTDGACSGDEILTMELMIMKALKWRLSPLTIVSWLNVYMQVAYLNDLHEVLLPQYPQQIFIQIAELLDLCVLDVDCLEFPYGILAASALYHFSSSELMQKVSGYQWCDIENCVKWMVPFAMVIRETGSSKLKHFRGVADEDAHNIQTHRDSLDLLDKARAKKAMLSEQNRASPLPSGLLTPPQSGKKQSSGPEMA
Sequence (Q00526 whole entry, looked up): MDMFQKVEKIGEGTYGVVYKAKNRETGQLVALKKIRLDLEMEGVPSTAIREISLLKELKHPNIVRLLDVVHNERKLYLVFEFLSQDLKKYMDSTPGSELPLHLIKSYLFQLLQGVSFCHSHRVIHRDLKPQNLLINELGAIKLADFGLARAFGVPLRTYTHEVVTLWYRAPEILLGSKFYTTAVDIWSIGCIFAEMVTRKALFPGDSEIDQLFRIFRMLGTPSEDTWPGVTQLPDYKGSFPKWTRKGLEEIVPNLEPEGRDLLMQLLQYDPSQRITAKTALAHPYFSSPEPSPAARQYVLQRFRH
assay-context: at 0.1 µM
property-label: inhibition (%)
Quick note: give the figure in %, leave out the unit.

Ask: Respond only with inhibition recorded for NS(=O)(=O)c1ccc(N/C=C2\C(=O)Nc3ccc4ncsc4c32)cc1
Result: 75.5

Ask: Item CCn1c(-c2nonc2N)nc2c(C#CC(C)(C)O)nc(O[C@@H](CN)c3ccccc3)cc21 : provide inhibition
Result: 3.62

Ask: Please give the documented inhibition of CCn1c(-c2nonc2N)nc2c(C#CC(C)(C)O)ncc(OCC3CCNCC3)c21
Result: 7.2

Ask: Let me know recorded inhibition for CCn1c(-c2nonc2N)nc2c(C#CCN)ncc(OCCCN)c21 , thanks.
Result: 2.51

Ask: Identify the reported inhibition for the following entry. COc1cc2c(cc1Nc1nc(Nc3ccsc3C(N)=O)c3cc[nH]c3n1)N(C(=O)CN(C)C)CCC2
Result: 0.3

Ask: State its inhibition for this molecule: Fc1ccc(-c2ncn(C3CCNCC3)c2-c2ccnc(Oc3ccccc3)n2)cc1
Result: -3.17
